- Test system: 648629-189-R-J1-PDC spheroids with HUVEC/MSC, viability
- TEST_DETAILS: Anticancer human tumor 648629-189-R-J1-PDC patient-derived bladder carcinoma cell line growth inhibition [PI3K]; active = viability on the fitted dose curve at most 10% of control; inactive = the rest
- TEST_SETTINGS: second compound 3.16 µM; first compound 3.16 µM
Hi! Could you answer with just one of these? active, inactive

# example entries with known answers
[[record]]
compound = "C[C@@H](NC(=O)c1ncnc(N)c1Cl)c1ncc(C(=O)Nc2cc(C(F)(F)F)c(Cl)cn2)s1 + CC(Nc1ncnc2nc[nH]c12)c1cc2cccc(Cl)c2c(=O)n1-c1ccccc1"
assigned_class = "inactive"

[[record]]
compound = "C#Cc1c(F)ccc2cc(O)cc(-c3ncc4c(N5CC6CCC(C5)N6)nc(OCC56CCCN5CC(F)C6)nc4c3F)c12 (stereo not given) + Cc1nc(NC(=O)N2CCCC2C(N)=O)sc1-c1ccnc(C(C)(C)C(F)(F)F)c1"
assigned_class = "inactive"

[[record]]
compound = "CC(Cn1ccc(-c2ccc(C#N)c(Cl)c2)n1)NC(=O)c1cc(C(C)O)[nH]n1 (stereo not given) + Cc1nc(NC(=O)N2CCCC2C(N)=O)sc1-c1ccnc(C(C)(C)C(F)(F)F)c1"
assigned_class = "inactive"

[[record]]
compound = "C#Cc1c(F)ccc2cc(O)cc(-c3ncc4c(N5CC6CCC(C5)N6)nc(OCC56CCCN5CC(F)C6)nc4c3F)c12 (stereo not given) + CC(Nc1ncnc2nc[nH]c12)c1cc2cccc(Cl)c2c(=O)n1-c1ccccc1"
assigned_class = "inactive"


Recorded test call requested for Cn1ncc(Cl)c1-c1cc(C(=O)NC(CN)Cc2cccc(F)c2)sc1Cl (stereo not given) + Cc1nc(NC(=O)N2CCCC2C(N)=O)sc1-c1ccnc(C(C)(C)C(F)(F)F)c1 active

###

Answer each item with its documented viability, T/C.
- Tested on: 648629-189-R-J1-PDC spheroids with HUVEC/MSC, viability
- TEST_DETAILS: Anticancer human tumor 648629-189-R-J1-PDC cell line growth inhibition [PI3K];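 also: spheroids exposed to agents for seven days before reading; percent of vehicle control luminescence where 100% = DMSO treated spheroids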
- TEST_SETTINGS: second compound 0.01 µM; first compound 0.0316 µM; active compounds read low
Answers are plain numbers, in %.

[[record]]
molecule = "CC1(C)CCC(Nc2ncc(C(F)(F)F)c(-c3c[nH]c4c(P(C)(C)=O)c(C#N)ccc34)n2)CN1 (centres undefined) + CC(Nc1ccc2c(c1)OCCn1cc(N3C(=O)OCC3C(F)F)nc1-2)C(N)=O"
numeric_readout = 25.3

[[record]]
molecule = "CC(=O)c1c(C)c2cnc(Nc3ccc(N4CCNCC4)cn3)nc2n(C2CCCC2)c1=O + CC(Nc1ccc2c(c1)OCCn1cc(N3C(=O)OCC3C(F)F)nc1-2)C(N)=O"
numeric_readout = 98.9


Your task in this section: give viability, T/C for each listed record.
1. C#Cc1c(F)ccc2cc(O)cc(-c3ncc4c(N5CC6CCC(C5)N6)nc(OCC56CCCN5CC(F)C6)nc4c3F)c12 (centres undefined) + CC(Nc1ccc2c(c1)OCCn1cc(N3C(=O)OCC3C(F)F)nc1-2)C(N)=O
2. Cn1ncnc1[C@H]1c2n[nH]c(=O)c3cc(F)cc(c23)N[C@@H]1c1ccc(F)cc1 + COc1c(OCCCN2CCOCC2)ccc2c3n(c(=NC(=O)c4cnc(N)nc4)nc12)CCN3
3. Cn1ncnc1[C@H]1c2n[nH]c(=O)c3cc(F)cc(c23)N[C@@H]1c1ccc(F)cc1 + CC(Nc1ccc2c(c1)OCCn1cc(N3C(=O)OCC3C(F)F)nc1-2)C(N)=O

[97.9, 86.5, 69.4]

###

- Test system: 648629-189-R-J1-PDC spheroids with HUVEC/MSC, viability
- TEST_DETAILS: Anticancer human tumor 648629-189-R-J1-PDC cell line growth inhibition [PI3K];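 also: spheroids exposed to agents for seven days before reading; percent of vehicle control luminescence where 100% = DMSO treated spheroids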
- TEST_SETTINGS: second compound 0.1 µM; first compound 0.03 µM; active compounds read low
Answer each item with its documented viability, T/C.
One number for each entry, in %.

Some compounds with recorded viability, T/C:
[[record]]
compound = "Cn1cnc2c(F)c(Nc3ccc(Br)cc3Cl)c(C(=O)NOCCO)cc21 + Cc1nc(NC(=O)N2CCCC2C(N)=O)sc1-c1ccnc(C(C)(C)C(F)(F)F)c1"
numeric_readout = 90.7

[[record]]
compound = "Cn1cnc2c(F)c(Nc3ccc(Br)cc3Cl)c(C(=O)NOCCO)cc21 + COc1c(OCCCN2CCOCC2)ccc2c3n(c(=NC(=O)c4cnc(N)nc4)nc12)CCN3"
numeric_readout = 59.3

[[record]]
compound = "Cn1cnc2c(F)c(Nc3ccc(Br)cc3Cl)c(C(=O)NOCCO)cc21 + CC(Nc1ncnc2nc[nH]c12)c1cc2cccc(Cl)c2c(=O)n1-c1ccccc1"
numeric_readout = 93.6


// switching to the query compound
Item Cn1cnc2c(F)c(Nc3ccc(Br)cc3Cl)c(C(=O)NOCCO)cc21 + CC(Nc1ccc2c(c1)OCCn1cc(N3C(=O)OCC3C(F)F)nc1-2)C(N)=O has what recorded viability, T/C? 91.7

###

- System: 648629-189-R-J1-PDC spheroids with HUVEC/MSC, viability
- TEST_DETAILS: Anticancer human tumor 648629-189-R-J1-PDC cell line growth inhibition [PI3K]; active means viability on the fitted dose curve at most 10% of control; inactive means the rest;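 also: spheroids exposed to agents for seven days before reading; percent of vehicle control luminescence where 100% = DMSO treated spheroids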
- TEST_SETTINGS: second compound 1 µM; first compound 10 µM
Hi! Could you answer with just one of these? active, inactive

[[record]]
compound = "C=CC(=O)N1CCN(c2nc(=O)n(-c3c(C)ccnc3C(C)C)c3nc(-c4c(O)cccc4F)c(F)cc23)C(C)C1 (stereo unspecified) + CC(Nc1ccc2c(c1)OCCn1cc(N3C(=O)OCC3C(F)F)nc1-2)C(N)=O"
assigned_class = "inactive"


Recorded test call requested for CC(C)NCC(C(=O)N1CCN(c2ncnc3c2C(C)CC3O)CC1)c1ccc(Cl)cc1 (stereo unspecified) + CC(Nc1ccc2c(c1)OCCn1cc(N3C(=O)OCC3C(F)F)nc1-2)C(N)=O inactive

Again, but for CC1(C)CCC(Nc2ncc(C(F)(F)F)c(-c3c[nH]c4c(P(C)(C)=O)c(C#N)ccc34)n2)CN1 (stereo unspecified) + CC(Nc1ncnc2nc[nH]c12)c1cc2cccc(Cl)c2c(=O)n1-c1ccccc1 inactive

Again, but for Cn1nccc1Nc1nccc(-c2ccn(C(CO)c3ccc(Cl)c(F)c3)c(=O)c2)n1 (stereo unspecified) + COc1c(OCCCN2CCOCC2)ccc2c3n(c(=NC(=O)c4cnc(N)nc4)nc12)CCN3 active

Again, but for CNC(=O)c1ccc(N2C(=S)N(c3ccc(C#N)c(C(F)(F)F)c3)C(=O)C2(C)C)cc1F + CC(Nc1ccc2c(c1)OCCn1cc(N3C(=O)OCC3C(F)F)nc1-2)C(N)=O inactive

Again, but for Cn1ncc(Cl)c1-c1cc(C(=O)NC(CN)Cc2cccc(F)c2)sc1Cl (stereo unspecified) + COc1c(OCCCN2CCOCC2)ccc2c3n(c(=NC(=O)c4cnc(N)nc4)nc12)CCN3 active

Again, but for CC(C)NCC(C(=O)N1CCN(c2ncnc3c2C(C)CC3O)CC1)c1ccc(Cl)cc1 (stereo unspecified) + Cc1nc(NC(=O)N2CCCC2C(N)=O)sc1-c1ccnc(C(C)(C)C(F)(F)F)c1 inactive

Again, but for CC(Cn1ccc(-c2ccc(C#N)c(Cl)c2)n1)NC(=O)c1cc(C(C)O)[nH]n1 (stereo unspecified) + COc1c(OCCCN2CCOCC2)ccc2c3n(c(=NC(=O)c4cnc(N)nc4)nc12)CCN3 active

Again, but for CNC(=O)c1ccc(N2C(=S)N(c3ccc(C#N)c(C(F)(F)F)c3)C(=O)C2(C)C)cc1F + Cc1nc(NC(=O)N2CCCC2C(N)=O)sc1-c1ccnc(C(C)(C)C(F)(F)F)c1 inactive

Again, but for Cn1ncc(Cl)c1-c1cc(C(=O)NC(CN)Cc2cccc(F)c2)sc1Cl (stereo unspecified) + CC(Nc1ccc2c(c1)OCCn1cc(N3C(=O)OCC3C(F)F)nc1-2)C(N)=O inactive

Again, but for CC(Cn1ccc(-c2ccc(C#N)c(Cl)c2)n1)NC(=O)c1cc(C(C)O)[nH]n1 (stereo unspecified) + Cc1nc(NC(=O)N2CCCC2C(N)=O)sc1-c1ccnc(C(C)(C)C(F)(F)F)c1 inactive

###

- Tested on: 648629-189-R-J1-PDC spheroids with HUVEC/MSC, viability
- TEST_DETAILS: Anticancer human tumor 648629-189-R-J1-PDC cell line growth inhibition [PI3K];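 also: spheroids exposed to agents for seven days before reading; percent of vehicle control luminescence where 100% = DMSO treated spheroids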
- TEST_SETTINGS: second compound 0.1 µM; first compound 0.0316 µM; active compounds read low
REPORTED_PROPERTY: viability, T/C (%)
One number for each entry, in %.

Your task in this section: give viability, T/C for each listed record.
1. CC(C)NCC(C(=O)N1CCN(c2ncnc3c2C(C)CC3O)CC1)c1ccc(Cl)cc1 (stereo not given) + CC(Nc1ncnc2nc[nH]c12)c1cc2cccc(Cl)c2c(=O)n1-c1ccccc1
2. Cn1ncnc1[C@H]1c2n[nH]c(=O)c3cc(F)cc(c23)N[C@@H]1c1ccc(F)cc1 + CC(Nc1ncnc2nc[nH]c12)c1cc2cccc(Cl)c2c(=O)n1-c1ccccc1
3. C[C@@H](NC(=O)c1ncnc(N)c1Cl)c1ncc(C(=O)Nc2cc(C(F)(F)F)c(Cl)cn2)s1 + Cc1nc(NC(=O)N2CCCC2C(N)=O)sc1-c1ccnc(C(C)(C)C(F)(F)F)c1
4. CC(=O)c1c(C)c2cnc(Nc3ccc(N4CCNCC4)cn3)nc2n(C2CCCC2)c1=O + CC(Nc1ncnc2nc[nH]c12)c1cc2cccc(Cl)c2c(=O)n1-c1ccccc1
5. CNC(=O)c1ccc(N2C(=S)N(c3ccc(C#N)c(C(F)(F)F)c3)C(=O)C2(C)C)cc1F + COc1c(OCCCN2CCOCC2)ccc2c3n(c(=NC(=O)c4cnc(N)nc4)nc12)CCN3

1: 97.3; 2: 93.2; 3: 107; 4: 117; 5: 66

src = PubChem BioAssay AID1963974
